Target: Glutamate [NMDA] receptor
Experiment: Inhibition of [3H]DCKA binding to N-methyl-D-aspartate glutamate receptor
pIC50: −log10 of the molar value.
reported-endpoint: pIC50

>>> recorded_measurement("Oc1nc2ncc(Cl)cc2c(O)c1-c1ccccc1")
"< 4.00"
>>> recorded_measurement("Oc1nc2cc3ccccc3cc2nc1O")
4.80
>>> recorded_measurement("O=[N+]([O-])c1c(O)nc2c(F)c(F)c(F)c(F)c2c1O")
"< 4.00"
